FYI, the data here is from the supplement of paper PMC13380429.

- Tested on: Vero E6
- TEST NAME: cell viability relative to DMSO; higher = less toxic
- DETAILS: 72 h; 10 nM
Recorded cell viability values for a group of molecules are listed next.
Respond numerically; units are % and should not be typed.

Consider the reported cell viability for these molecules:
Supply cell viability measured with Vero E6 for `O=C1c2ccccc2S(=O)(=O)N1CCCCN1CCN(c2ncccn2)CC1` .
102

Supply cell viability measured with Vero E6 for `CCS(=O)(=O)CCn1c([N+](=O)[O-])cnc1C` .
102

Supply cell viability measured with Vero E6 for `NCCC(=O)N[C@@H](Cc1c[nH]cn1)C(=O)O` .
95.3

Supply cell viability measured with Vero E6 for `CCOC(=O)c1cc2ccc(O)cc2oc1=O` .
95.5

Others:
Supply cell viability measured with Vero E6 for Cc1ccc(C[N+](C)(C)C)o1 [5-methylfurmethiodide] .
103

Supply cell viability measured with Vero E6 for `CN1CCN(CC/C=C2/c3ccccc3Sc3ccc(S(=O)(=O)N(C)C)cc32)CC1` .
108

Supply cell viability measured with Vero E6 for `CC(=O)NCCNc1cc(Cl)nn2c(-c3cccc(S(=O)(=O)N(C)C)c3)c(C)nc12` .
98

Supply cell viability measured with Vero E6 for `Cc1cc(CCC[C@H](CC(=O)NO)C(=O)N[C@H](C(=O)N[C@H](C)c2ccccc2)C(C)(C)C)ccc1-c1ccccc1` .
104

Supply cell viability measured with Vero E6 for Cc1cccc(C)c1NC(=O)CN1CCCCCC1 [pincainide] .
87.8

###

- Tested on: Calu-3
- TEST NAME: cell viability relative to DMSO; higher = less toxic
- DETAILS: 72 h; 1000 nM
Recorded cell viability values for a group of molecules are listed next.
Respond numerically; units are % and should not be typed.

Supply cell viability measured with Calu-3 for `Cn1nc(-c2ccc(C(F)(F)F)cc2)nc2c(=O)n(C)c(=O)nc1-2` .
98

Supply cell viability measured with Calu-3 for CC(C)(C)NCC(O)COc1cc(Cl)ccc1Cl (centres undefined) .
89.9

Supply cell viability measured with Calu-3 for `O=CN1CCC(C(=O)NCCN2CCC(=C3c4ccccc4C=Cc4ccccc43)CC2)CC1` .
97.7

Supply cell viability measured with Calu-3 for COc1cc(CCc2cc(NC(=O)c3ccc(N4CC(C)NC(C)C4)cc3)n[nH]2)cc(OC)c1 (centres undefined) .
99.4

// next entry
Supply cell viability measured with Calu-3 for `NCC1(CC(=O)O)CCCCC1` .
110

###

- Test system: U2OS
- TEST NAME: cell viability relative to DMSO; higher = less toxic
- DETAILS: 72 h; 10 nM
ENDPOINT NAME: cell viability

Consider the reported cell viability for these compounds:
Determine its reported cell viability: O=C(O)[C@@H](S)[C@@H](S)C(=O)O [dimercaptosuccinic-acid]
98.2%

Determine its reported cell viability: COc1cc([C@@H]2c3cc4c(cc3[C@@H](O[C@@H]3O[C@@H]5CO[C@@H](C)O[C@H]5[C@H](O)[C@H]3O)[C@H]3COC(=O)[C@H]23)OCO4)cc(OC)c1O [etoposide]
104%

Determine its reported cell viability: O=C(/C=C/c1ccc(O)cc1)c1ccc(O)cc1O [isoliquiritigenin]
99.7%

Others:
Determine its reported cell viability: [N-]=[N+]=CC(=O)CC[C@H](N)C(=O)O [6-diazo-5-oxo-L-norleucine]
102%

Determine its reported cell viability: `COc1[nH]c2ccc(F)cc2c1C(=O)OCC1CCN(CCNS(C)(=O)=O)CC1`
94.5%

Determine its reported cell viability: NCCC(=O)N[C@@H](Cc1c[nH]cn1)C(=O)O [carnosine]
97.2%

Determine its reported cell viability: `COc1ccc(S(=O)(=O)Nc2c(C)cc(C)cc2C)cc1`
98.7%

Determine its reported cell viability: COc1ccc2cc(-c3nc(-c4ccc([S+](C)[O-])cc4)[nH]c3-c3ccncc3)ccc2c1 (stereo not drawn) [tie2-kinase-inhibitor]
97.3%

###

- Tested on: Caco-2
- TEST NAME: cell viability relative to DMSO; higher = less toxic
- DETAILS: 72 h; 10 nM
Recorded cell viability values for a group of compounds are listed next.
Respond numerically; units are % and should not be typed.

Supply cell viability measured with Caco-2 for `CC(C)(C)CCN1C[C@@H]2[C@@H](CNC(=O)c3cc(Cl)cc(Cl)c3)[C@@H]2C1` .
97.4

Supply cell viability measured with Caco-2 for `O=C(NOCCO)c1ccc2cncn2c1Nc1ccc(I)cc1F` .
79.5

Supply cell viability measured with Caco-2 for `CC(C)=CCC[C@](C)(O)[C@H]1CC[C@]2(C)[C@@H]1[C@H](O)C[C@@H]1[C@@]3(C)CC[C@H](O)C(C)(C)[C@@H]3CC[C@]12C` .
98.3

Others:
Supply cell viability measured with Caco-2 for `NC(=O)CN1Cc2ccccc2OC1=O` .
102

Supply cell viability measured with Caco-2 for CC(C)[C@@]1(NC(=O)[C@@H]2C[C@@H]3c4cccc5[nH]cc(c45)C[C@H]3N(C)C2)O[C@@]2(O)[C@@H]3CCCN3C(=O)[C@H](Cc3ccccc3)N2C1=O [dihydroergocristine] .
100

Supply cell viability measured with Caco-2 for `O=C(Nc1cc(C(F)(F)F)cc(C(F)(F)F)c1)c1cnc(Cl)nc1C(F)(F)F` .
94.3

Supply cell viability measured with Caco-2 for C=C1C(=O)O[C@@H]2[C@H]3O[C@]3(C)CC/C=C(\C)CC[C@@H]12 [parthenolide-(alternate-stereo)] .
95.8

###

Recorded relative viability EC50 values for a group of compounds are listed next.
- Tested on: Caco-2
- TEST NAME: relative viability EC50 (midpoint between 100% and the lowest measured viability); higher = less toxic
- DETAILS: 72 h

Consider the reported relative viability EC50 for these compounds:
Determine its reported relative viability EC50: `C[C@@H]1CC(=O)NN=C1c1ccc(NN=C(C#N)C#N)cc1`
> 10 µM

Determine its reported relative viability EC50: `CC(C)C[C@@H]1NC(=O)[C@@H](C(C)C)NC(=O)[C@@H]2CCCN2C(=O)[C@@H](CC(=O)O)NC(=O)[C@@H](Cc2c[nH]c3ccccc23)NC1=O`
> 10 µM

Determine its reported relative viability EC50: `Nc1ncnc2c1ncn2[C@H]1O[C@@H](C(=O)N2CCN(CC(=O)Nc3cccc4c3CNC4=O)CC2)[C@H](O)[C@@H]1O`
> 10 µM

Determine its reported relative viability EC50: Cc1cc(C)cc(C(=O)O[C@H]2C[C@H]3CC[C@@H](C2)N3C)c1 [tropanyl-3,5-dimethylbenzoate]
> 10 µM

Determine its reported relative viability EC50: `COc1ccc(CCN(C)CCc2ccc(OC)c(OC)c2)cc1OC`
> 10 µM

Determine its reported relative viability EC50: `N#Cc1ncccn1`
> 10 µM

Determine its reported relative viability EC50: `O=c1ccc2c(OCCCCOc3ccccc3)c3ccoc3cc2o1`
> 10 µM

Determine its reported relative viability EC50: `CC[C@]1(O)C[C@@H]2CN(CCc3c([nH]c4ccccc34)[C@@](C(=O)OC)(c3cc4c(cc3OC)N(C)[C@H]3[C@@](O)(C(N)=O)[C@H](O)[C@]5(CC)C=CCN6CC[C@]43[C@@H]65)C2)C1`
0.0121 µM

Determine its reported relative viability EC50: `CCOc1cc(N2CCC(O)CC2)ccc1Nc1ncc2c(n1)N(C)c1ccccc1C(=O)N2C`
> 10 µM

Determine its reported relative viability EC50: `CCOC(=O)c1cc2ccc(O)cc2oc1=O`
> 10 µM

Others:
Determine its reported relative viability EC50: Cc1cccc(C)c1NC(=O)CN1CCCCCC1 [pincainide]
> 10 µM

Determine its reported relative viability EC50: `CC(=O)OC[C@H](N)C(=O)O`
> 10 µM

Determine its reported relative viability EC50: `CCCC[C@H]1C(=O)N(c2ccccc2)N(c2ccc(O)cc2)C1=O`
2.41 µM

Determine its reported relative viability EC50: Sc1nc2ccccc2s1 [benzo[d]thiazole-2(3H)-thione]
> 10 µM

Determine its reported relative viability EC50: `CCS(=O)(=O)N1CC(CC#N)(n2cc(-c3ncnc4[nH]ccc34)cn2)C1`
> 10 µM

Determine its reported relative viability EC50: COc1cc(NC(C)CCCN)c2ncccc2c1 (configuration not stated)
2.25 µM

Determine its reported relative viability EC50: `CC(C)(O)CS(=O)(=O)Nc1ccc2c(c1)CCN(C(=O)COc1cccnc1)C2`
0.193 µM

###

- Test system: Calu-3
- TEST NAME: drug sensitivity score (DSS) for viability; higher = more toxic; extreme values may be limits of the assay
- DETAILS: 72 h
Recorded drug sensitivity score values for a group of compounds are listed next.
Provide a numeric answer; units are not to be included.

Consider the reported drug sensitivity score for these compounds:
Determine its reported drug sensitivity score: CCN(CC)CCNC(=O)c1c(C)[nH]c(/C=C2\C(=O)Nc3ccc(F)cc32)c1C [sunitinib]
0.1

Determine its reported drug sensitivity score: Cc1c(C)c2c(c(C)c1OC(=O)CCC(=O)OCCO)CC[C@@](C)(CCC[C@H](C)CCC[C@H](C)CCCC(C)C)O2 [tocofersolan]
0

Determine its reported drug sensitivity score: CC(C)=CCC[C@](C)(O)[C@H]1CC[C@]2(C)[C@@H]1[C@H](O)C[C@@H]1[C@@]3(C)CC[C@H](O)C(C)(C)[C@@H]3CC[C@]12C [S-111]
0

Determine its reported drug sensitivity score: COc1cc(NC(C)CCCN)c2ncccc2c1 (configuration not stated) [primaquine]
0.8

Determine its reported drug sensitivity score: Nc1ncnc2c1ncn2[C@@H]1O[C@H](COP(=O)(O)OP(=O)(O)OP(=O)(O)OP(=O)(O)OC[C@H]2O[C@@H](n3cnc4c(N)ncnc43)[C@H](O)[C@@H]2O)[C@@H](O)[C@H]1O [diadenosine-tetraphosphate]
0.1

Others:
Determine its reported drug sensitivity score: NC(=O)c1nc(F)cnc1O [favipiravir]
0

Determine its reported drug sensitivity score: `Cc1ccc(N2CCN(CC[C@H]3NC(=O)c4ccccc43)CC2)cc1C`
0
